Every entry's value here was drawn from patent US9630894B2.

List of concentration in sample values.
- RUN DESCRIPTION: CCC extraction with DME of clarified fermentation broth from Clostridium acetobutylicum, GC and DNS assay
- Type: physicochemical
- MEASUREMENT CONDITIONS: Run 3, Extract Top, time 37 min
ASSAY READOUT: concentration in sample (µg/mL)

> print(dat)
                         compound            assay.readout  quantitative.readout
1                         CC(C)=O  concentration in sample                  6440
2               CC(=O)O [acetate]  concentration in sample                   370
3                         CC(C)CO  concentration in sample                328990
4                             CCO  concentration in sample                  2110
5            CCCC(=O)O [butyrate]  concentration in sample                 22520
6  CC(=O)C(C)O (stereo not drawn)  concentration in sample                  1020

###

- RUN DESCRIPTION: CCC extraction with DME of clarified fermentation broth from Clostridium acetobutylicum, GC and DNS assay
- Assay type: physicochemical
- MEASUREMENT CONDITIONS: Run 3, Extract, time 74 min
Documented concentration in sample across a set of compounds
ASSAY READOUT: concentration in sample (µg/mL)

> print(dat)
                                   compound  units.symbol  quantitative.readout
1  CC(C)CO [isobutanol, 2-methyl-1-propanol]         µg/mL                 31830
2                         CC(=O)O [acetate]         µg/mL                     0
3  CC(=O)C(C)O (stereo not drawn) [Acetoin]         µg/mL                  1460
4                CC(C)=O [Acetone, acetone]         µg/mL                  4090
5                      CCCC(=O)O [butyrate]         µg/mL                  1380
6                    CCO [Ethanol, ethanol]         µg/mL                  1710

###

- RUN DESCRIPTION: CCC extraction with DME of clarified fermentation broth from Clostridium acetobutylicum, GC and DNS assay
- Format: physicochemical
- MEASUREMENT CONDITIONS: Run 3, Extract, time 78 min
ASSAY READOUT: concentration in sample

> print(dat)
                         compound       result
1            CCCC(=O)O [butyrate]   3010 µg/mL
2                         CC(C)=O   3830 µg/mL
3                         CC(C)CO  33190 µg/mL
4               CC(=O)O [acetate]    550 µg/mL
5                             CCO   1700 µg/mL
6  CC(=O)C(C)O (stereo not drawn)   1600 µg/mL

###

- RUN DESCRIPTION: CCC extraction with DME of clarified fermentation broth from Clostridium acetobutylicum, GC and DNS assay
- Assay type: physicochemical
- MEASUREMENT CONDITIONS: Run 3, Raffinate, time 37 min
ASSAY READOUT: concentration in sample (g/L)

> print(dat)
                         compound  units.symbol  quantitative.readout
1            CCCC(=O)O [butyrate]           g/L                  0.88
2                         CC(C)CO           g/L                  0.23
3               CC(=O)O [acetate]           g/L                  6.01
4                             CCO           g/L                  0.64
5  CC(=O)C(C)O (stereo not drawn)           g/L                  0.00
6                         CC(C)=O           g/L                  0.14

###

Documented concentration in sample across a set of compounds
- RUN DESCRIPTION: CCC extraction with DME of clarified fermentation broth from Clostridium acetobutylicum, GC and DNS assay
- Format: physicochemical
- MEASUREMENT CONDITIONS: Run 3, Raffinate, time 31 min
ASSAY READOUT: concentration in sample

> print(dat)
                         compound            assay.readout    result
1               CC(=O)O [acetate]  concentration in sample  6.42 g/L
2                             CCO  concentration in sample  0.42 g/L
3  CC(=O)C(C)O (stereo not drawn)  concentration in sample  0.00 g/L
4            CCCC(=O)O [butyrate]  concentration in sample  0.88 g/L
5                         CC(C)=O  concentration in sample  0.31 g/L
6                         CC(C)CO  concentration in sample  0.38 g/L

###

- RUN DESCRIPTION: CCC extraction with DME of clarified fermentation broth from Clostridium acetobutylicum, GC and DNS assay
- Format: physicochemical
- MEASUREMENT CONDITIONS: Run 3, Extract, time 22 min
A collection of compounds and their measured concentration in sample
ASSAY READOUT: concentration in sample (µg/mL)

> print(dat)
                                   compound            assay.readout  units.symbol  quantitative.readout
1                      CCCC(=O)O [butyrate]  concentration in sample         µg/mL                  3520
2                    CCO [Ethanol, ethanol]  concentration in sample         µg/mL                  1130
3  CC(=O)C(C)O (stereo not drawn) [Acetoin]  concentration in sample         µg/mL                   960
4                CC(C)=O [Acetone, acetone]  concentration in sample         µg/mL                  2980
5  CC(C)CO [isobutanol, 2-methyl-1-propanol]  concentration in sample         µg/mL                 18650
6                         CC(=O)O [acetate]  concentration in sample         µg/mL                   410

###

- RUN DESCRIPTION: CCC extraction with DME of clarified fermentation broth from Clostridium acetobutylicum, GC and DNS assay
- Format: physicochemical
- MEASUREMENT CONDITIONS: Run 3, Raffinate, time 78 min
- Experimental: This example describes three different runs of the CCC with fermentation broth from Clostridium acetobutylicum. […] The fermentation was intentionally interrupted prior to completion. The extraction column operated at room temperature (˜25° C.) throughout the column. Periodic extract and raffinate samples were taken and analyzed for the constituents in the extract and raffinate discharges. This example describes three different runs. […] All components were quantified in the extract and raffinate. […]
Reported concentration in sample by item:
ASSAY READOUT: concentration in sample (µg/mL)

> print(dat)
                                   molecule            assay.readout  units.symbol  quantitative.readout
1                    CCO [Ethanol, ethanol]  concentration in sample         µg/mL                   240
2                CC(C)=O [Acetone, acetone]  concentration in sample         µg/mL                   820
3                      CCCC(=O)O [butyrate]  concentration in sample         µg/mL                   870
4                         CC(=O)O [acetate]  concentration in sample         µg/mL                  7070
5  CC(=O)C(C)O (stereo not drawn) [Acetoin]  concentration in sample         µg/mL                    60
6  CC(C)CO [isobutanol, 2-methyl-1-propanol]  concentration in sample         µg/mL                   480
